Molecular target: VEGF receptor KDR (Homo sapiens, UniProt P35968)
Construct: made in house; host or cells: Sf9 cells (Spodoptera frugiperda), baculovirus
Sequence (P35968 806-1356): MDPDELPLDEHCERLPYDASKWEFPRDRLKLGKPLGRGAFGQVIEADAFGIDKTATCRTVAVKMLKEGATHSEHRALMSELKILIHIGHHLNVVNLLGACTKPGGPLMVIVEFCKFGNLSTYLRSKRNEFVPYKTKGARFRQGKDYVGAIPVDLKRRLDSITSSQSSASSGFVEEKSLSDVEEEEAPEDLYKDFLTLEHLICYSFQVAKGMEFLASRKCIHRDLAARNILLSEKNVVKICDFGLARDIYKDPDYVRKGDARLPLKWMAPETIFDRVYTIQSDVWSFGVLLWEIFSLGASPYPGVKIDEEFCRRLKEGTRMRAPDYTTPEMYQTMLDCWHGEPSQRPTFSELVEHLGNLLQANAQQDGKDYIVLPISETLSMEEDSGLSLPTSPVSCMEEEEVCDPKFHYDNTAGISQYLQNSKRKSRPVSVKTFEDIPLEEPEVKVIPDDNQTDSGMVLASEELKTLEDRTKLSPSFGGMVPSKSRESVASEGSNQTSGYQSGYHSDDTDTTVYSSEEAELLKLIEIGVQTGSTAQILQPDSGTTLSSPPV
Assay: In vitro receptor tyrosine kinase assay (DELFIA), VEGF receptor KDR
Type: biochemical
Conditions: GST-VEGFR2 806-1356, 0.6 uM ATP, DELFIA; read-out: VEGFR (IC50)
Rule: IC50 below 5 nM gives yes (1), anything at or above gives no (0).

Does this compound meet the criterion IC50 < 5 nM? O=C(CC(=O)Nc1ccc(Oc2ccnc3cc(C(=O)N4CCCC4)sc23)c(F)c1)Nc1ccccc1 yes (1)

Does this compound meet the criterion IC50 < 5 nM? Cn1cnc(-c2cc3nccc(Oc4ccc(NC(=O)CC(=O)Nc5ccccc5)cc4F)c3s2)c1 yes (1)

Does this compound meet the criterion IC50 < 5 nM? CN(C)[C@@H]1CCN(C(=O)c2cc3nccc(Oc4ccc(NC(=O)CC(=O)Nc5ccccc5)cc4F)c3s2)C1 no (0)

Does this compound meet the criterion IC50 < 5 nM? COc1ccccc1NC(=O)CC(=O)Nc1ccc(Oc2ccnc3cc(-c4ccc(CN5CCCC5)cc4)sc23)c(F)c1 no (0)

Does this compound meet the criterion IC50 < 5 nM? Cn1ccnc1-c1cc2nccc(Oc3ccc(NC(=O)CC(=O)Nc4cccnc4)cc3F)c2s1 no (0)

Does this compound meet the criterion IC50 < 5 nM? COc1ccccc1NC(=O)CC(=O)Nc1ccc(Oc2ccnc3cc(-c4cncn4C)sc23)c(F)c1 [Compound 28c] no (0)

Does this compound meet the criterion IC50 < 5 nM? CCn1cnc(-c2cc3nccc(Oc4ccc(NC(=O)CC(=O)Nc5ccccc5OC)cc4F)c3s2)c1 [Compound 28b] yes (1)

Does this compound meet the criterion IC50 < 5 nM? O=C(CC(=O)Nc1ccc(Oc2ccnc3ccsc23)c(F)c1)Nc1ccccc1 no (0)

Does this compound meet the criterion IC50 < 5 nM? Cn1ccnc1-c1cc2nccc(Oc3ccc(NC(=O)CC(=O)Oc4ccccc4)cc3F)c2s1 no (0)

Does this compound meet the criterion IC50 < 5 nM? Cn1ccnc1-c1cc2nccc(Oc3ccc(NC(=O)CC(=O)Nc4ccncc4)cc3F)c2s1 no (0)

Does this compound meet the criterion IC50 < 5 nM? Cn1ccnc1-c1cc2nccc(Oc3ccc(NC(=O)CC(=O)Nc4ccccc4)cc3F)c2s1 yes (1)

Does this compound meet the criterion IC50 < 5 nM? Cn1cncc1-c1cc2nccc(Oc3ccc(NC(=O)CC(=O)Nc4cccnc4)cc3F)c2s1 no (0)

###

Provide the reported IC50 of each item.
Molecular target: VEGF receptor KDR (Homo sapiens)
Construct: made in house; host or cells: Sf9 cells (Spodoptera frugiperda), baculovirus
Assay: In vitro receptor tyrosine kinase assay (DELFIA), VEGF receptor KDR
Format: biochemical
Conditions: read-out: VEGFR IC50

Give the value of IC50 reported for the following: CN1CCN(CCN(C)Cc2ccc(-c3cc4nccc(Oc5ccc(NC(=O)CC(=O)Nc6ccc(F)cc6)cc5F)c4s3)cc2)CC1 < 50 nM

Give the value of IC50 reported for the following: COCCn1cnc(-c2cc3nccc(Oc4ccc(NC(=O)CC(=O)Nc5ccccc5)cc4F)c3s2)c1 < 50 nM

Give the value of IC50 reported for the following: CN(c1ccc(NC(=O)C2(C(=O)Nc3ccccc3)CC2)cc1F)c1ccnc2ccsc12 > 500 nM

Give the value of IC50 reported for the following: CN(C)CCn1cnc(-c2cc3nccc(Oc4ccc(NC(=O)N5CCN(c6ccc(F)cc6)C5=O)cc4F)c3s2)c1 < 50 nM

Give the value of IC50 reported for the following: Cn1cnc(-c2cc3nccc(Oc4ccc(NC(=O)C5CCN(c6ccccc6F)C5=O)cc4F)c3s2)c1 (centres unmarked) 250 to 500 nM

Give the value of IC50 reported for the following: CN1CCN(CCN(C)Cc2cccc(-c3cc4nccc(Oc5ccc(NC(=O)CC(=O)N(C)c6ccccc6)cc5F)c4s3)c2)CC1 < 50 nM

Give the value of IC50 reported for the following: COc1ccccc1CCNC(=O)C(=O)Nc1ccc(Oc2ccnc3cc(-c4cn(C)cn4)sc23)c(F)c1 < 50 nM

Give the value of IC50 reported for the following: CN1CCN(CCN(C)Cc2ccc(-c3cc4nccc(Oc5ccc(NC(=O)N6CCN(c7ccccc7)C6=O)cc5F)c4s3)cc2)CC1 < 50 nM

Give the value of IC50 reported for the following: CCn1cnc(-c2cc3nccc(Oc4ccc(NC(=O)N5CCN(c6ccc(F)cc6)C5=O)cc4F)c3s2)c1 < 50 nM

Give the value of IC50 reported for the following: COc1ccccc1NC(=O)CC(=O)Nc1ccc(Oc2ccnc3cc(-c4ccc(OCCCN(C)C)nc4)sc23)c(F)c1 250 to 500 nM

Give the value of IC50 reported for the following: CCn1cnc(-c2cc3nccc(Oc4ccc(NC(=O)CC(=O)Nc5ccc(F)cc5)cc4F)c3s2)c1 < 50 nM

Give the value of IC50 reported for the following: CN(C)CCn1cnc(-c2cc3nccc(Oc4ccc(NC(=O)C5(C(=O)Nc6ccccc6F)CC5)cc4F)c3s2)c1 < 50 nM

Give the value of IC50 reported for the following: Cn1cnc(-c2cc3nccc(Nc4ccc(NC(=O)C5CCN(c6ccccc6)C5=O)cc4F)c3s2)c1 (centres unmarked) 250 to 500 nM

Give the value of IC50 reported for the following: Cn1ccnc1-c1cc2nccc(Oc3ccc(NC(=O)CS(=O)(=O)c4ccc(F)cc4)cc3F)c2s1 50 to 250 nM

Give the value of IC50 reported for the following: CCn1cnc(-c2cc3nccc(Oc4ccc(NC(=O)CC(=O)NC5CCCCC5)cc4F)c3s2)c1 < 50 nM

Give the value of IC50 reported for the following: O=C(Nc1ccc(Nc2ccnc3cc(-c4cn(CCN5CCCC5)cn4)sc23)c(F)c1)N1CCN(c2ccccc2)C1=O 250 to 500 nM

Give the value of IC50 reported for the following: CCn1cnc(-c2cc3nccc(Oc4ccc(NC(=O)C(=O)NCCc5ccccc5F)cc4F)c3s2)c1 50 to 250 nM

Give the value of IC50 reported for the following: COc1ccccc1NC(=O)CC(=O)Nc1ccc(Oc2ccnc3cc(-c4cnc(N5CCOCC5)nc4)sc23)c(F)c1 > 500 nM

Give the value of IC50 reported for the following: CN1CCN(CCN(C)Cc2ccc(-c3cc4nccc(Oc5ccc(NC(=O)CC(=O)Nc6ccccc6)cc5F)c4s3)cc2)CC1 [drawing 351] < 50 nM

Give the value of IC50 reported for the following: COc1ccccc1NC(=O)CC(=O)Nc1ccc(Oc2ccnc3cc(-c4ccc(CN5CCCC5)cc4)sc23)c(F)c1 [drawing 295] < 50 nM

Give the value of IC50 reported for the following: CCCn1cnc(-c2cc3nccc(Oc4ccc(NC(=O)CC(=O)Nc5ccccc5F)cc4F)c3s2)c1 < 50 nM

Give the value of IC50 reported for the following: CN(C)CCn1cnc(-c2cc3nccc(Oc4ccc(NC(=O)CC(=O)Nc5ccccc5F)cc4F)c3s2)c1 < 50 nM

Give the value of IC50 reported for the following: COc1ccccc1NC(=O)CC(=O)Nc1ccc(Oc2ccnc3cc(-c4cn(C(C)C)cn4)sc23)c(F)c1 < 50 nM

Give the value of IC50 reported for the following: O=C(Nc1ccc(Oc2ccnc3cc(-c4cn(CCN5CCCC5)cn4)sc23)c(F)c1)C1(C(=O)Nc2ccccc2F)CC1 < 50 nM

Give the value of IC50 reported for the following: CN(C)NC(=O)c1cc2nccc(Oc3ccc(NC(=O)CC(=O)N(C)c4ccccc4)cc3F)c2s1 > 500 nM

Give the value of IC50 reported for the following: O=C(Nc1ccc(Oc2ccnc3cc(-c4cn(CCN5CCCC5)cn4)sc23)c(F)c1)N1CCN(c2ccccc2)C1=O < 50 nM

Give the value of IC50 reported for the following: CCn1cnc(-c2cc3nccc(Oc4ccc(NC(=O)C(=O)NCCc5ccccc5OC)cc4F)c3s2)c1 < 50 nM

Give the value of IC50 reported for the following: Cn1ccnc1-c1cc2nccc(Oc3ccc(NC(=O)CC(=O)Nc4ccccc4F)cc3F)c2s1 [drawing 285] < 50 nM

Give the value of IC50 reported for the following: CN(C)CCCn1cnc(-c2cc3nccc(Oc4ccc(NC(=O)CC(=O)N(C)c5ccccc5)cc4F)c3s2)c1 < 50 nM

Give the value of IC50 reported for the following: Cn1ccnc1-c1cc2nccc(Oc3ccc(NC(=O)N4CCN(c5ccc(F)cc5)C4=O)cc3F)c2s1 < 50 nM

Give the value of IC50 reported for the following: COc1ccccc1NC(=O)CC(=O)Nc1ccc(Oc2ccnc3cc(N4CCCC4=O)sc23)c(F)c1 50 to 250 nM

Give the value of IC50 reported for the following: CCn1cnc(-c2cc3nccc(Oc4ccc(NC(=O)C5(C(=O)Nc6ccccc6F)CC5)cc4F)c3s2)c1 < 50 nM

###

Target: VEGF receptor KDR (Homo sapiens)
Construct: made in house; host or cells: Sf9 cells (Spodoptera frugiperda), baculovirus
Test: In vitro receptor tyrosine kinase assay (DELFIA), VEGF receptor KDR
Assay type: biochemical
Settings: read-out: VEGFR IC50
Provide the reported IC50 of each item.

Give the value of IC50 reported for the following: Cn1cncc1-c1cc2nccc(Oc3ccc(NC(=O)CC(=O)Nc4cccnc4)cc3F)c2s1 [drawing 290] < 50 nM

Give the value of IC50 reported for the following: COc1ccccc1NC(=O)CC(=O)Nc1ccc(Oc2ccnc3cc(-c4cccc(CN(C)C)c4)sc23)c(F)c1 50 to 250 nM

Give the value of IC50 reported for the following: CN(C)CCn1cnc(-c2cc3nccc(Oc4ccc(NC(=O)N5CCN(c6ccccc6)C5=O)cc4F)c3s2)c1 < 50 nM

Give the value of IC50 reported for the following: CN(C)[C@@H]1CCN(C(=O)c2cc3nccc(Oc4ccc(NC(=O)CC(=O)Nc5ccccc5)cc4F)c3s2)C1 [drawing 294] 50 to 250 nM

Give the value of IC50 reported for the following: CCn1cnc(-c2cc3nccc(Oc4ccc(NC(=O)CC(=O)Nc5ccccc5F)cc4F)c3s2)c1 [drawing 293] < 50 nM

Give the value of IC50 reported for the following: CCN(C(=O)CC(=O)Nc1ccc(Oc2ccnc3cc(-c4cn(CC)cn4)sc23)c(F)c1)c1ccccc1 < 50 nM

Give the value of IC50 reported for the following: CN(C)Cc1ccc(-c2cc3nccc(Oc4ccc(NC(=O)N5CCN(c6ccc(F)cc6)C5=O)cc4F)c3s2)nc1 < 50 nM

Give the value of IC50 reported for the following: CN1CC=C(c2cc3nccc(Oc4ccc(NC(=O)C5(C(=O)Nc6ccccc6)CC5)cc4F)c3s2)CC1 < 50 nM
